- measurement.target: human P2X3 receptor (Homo sapiens (Human))
- Sequence (P56373 whole entry): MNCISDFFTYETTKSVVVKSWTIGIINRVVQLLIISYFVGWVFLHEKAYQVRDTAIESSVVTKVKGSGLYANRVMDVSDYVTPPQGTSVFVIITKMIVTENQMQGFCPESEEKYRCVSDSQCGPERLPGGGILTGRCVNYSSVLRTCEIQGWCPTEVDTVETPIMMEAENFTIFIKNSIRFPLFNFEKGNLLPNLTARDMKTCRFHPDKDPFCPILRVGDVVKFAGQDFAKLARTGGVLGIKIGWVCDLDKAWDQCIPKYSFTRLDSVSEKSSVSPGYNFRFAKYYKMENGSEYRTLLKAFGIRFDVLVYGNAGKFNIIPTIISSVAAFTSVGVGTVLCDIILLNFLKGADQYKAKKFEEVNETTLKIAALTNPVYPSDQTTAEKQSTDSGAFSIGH
- protocol.notes: P2X3 receptor inhibition, ATP-evoked Fluo-3 calcium fluorescence (FDSS 3000)
- test.parameters: C6BU-1 cell transfected with human P2X3 receptor gene; ATP-evoked Fluo-3 fluorescence
For each of the compounds below, state its pIC50.
Notebook: values listed as pIC50 are -log10 of the concentration (mol/L).

stdin: Output measured pIC50 for this item: CC(C)C(=O)C1=C(O)C(=O)N(c2ccc(-c3ccoc3)cc2)C1c1cccnc1OCCCO (stereo not shown) [Compound I-566]
stdout: 7.21

stdin: Output measured pIC50 for this item: Cc1nc(-c2ccc(N3C(=O)C(O)=C(C(=O)CC4CCCC4)C3C3CCCCC3)cc2)no1 (stereo not shown) [Compound I-438]
stdout: 6.31

stdin: Output measured pIC50 for this item: CC(C)(C)C(=O)C1=C(O)C(=O)N(c2ccc(-c3cccs3)cc2)C1c1cccnc1OCCO (stereo not shown) [Compound I-172]
stdout: 7.62

stdin: Output measured pIC50 for this item: Cc1cc(-c2ccc(N3C(=O)C(O)=C(C(=O)C(C)C)C3c3ccccc3OCC3OCCO3)cc2)cs1 (stereo not shown) [Compound I-500]
stdout: 7.92

stdin: Output measured pIC50 for this item: CCN(C)C(=O)c1ncccc1C1C(C(=O)CC(C)C)=C(O)C(=O)N1c1ccc(-c2ccc(C)s2)cc1 (stereo not shown) [Compound I-575]
stdout: 6.60

stdin: Output measured pIC50 for this item: Cc1noc(-c2ccc(N3C(=O)C(O)=C(C(=O)C(C)C)C3c3ccccc3COC(C)C)cc2)n1 (stereo not shown) [Compound I-552]
stdout: 6.73

stdin: Output measured pIC50 for this item: CC(C)CC(=O)C1=C(O)C(=O)N(c2ccc(-c3ccsc3)cc2)C1c1ccccc1OC(F)(F)F (stereo not shown) [Compound I-330]
stdout: 7.15

stdin: Output measured pIC50 for this item: CC(=O)N(C)c1ccccc1C1C(C(=O)C(C)C)=C(O)C(=O)N1c1ccc(-c2ccsc2)cc1 (stereo not shown) [Compound I-212]
stdout: 7.04

stdin: Output measured pIC50 for this item: Cc1ccc(-c2ccc(N3C(=O)C(O)=C(C(=O)CC(C)C)C3c3ccccc3OCCO)cc2)o1 (stereo not shown) [Compound I-384]
stdout: 7.72

stdin: Output measured pIC50 for this item: CCOCOc1ccccc1C1C(C(=O)C(C)C)=C(O)C(=O)N1c1ccc(-c2ccsc2)cc1 (stereo not shown) [Compound I-544]
stdout: 8.10

stdin: Output measured pIC50 for this item: COCCOc1ccccc1C1c2c(C(C)(C)C)n[nH]c2C(=O)N1c1ccc(-c2nc(C)no2)cc1 (stereo not shown) [II-024]
stdout: 7.21

stdin: Output measured pIC50 for this item: Cc1ccc(-c2ccc(N3C(=O)C(O)=C(C(=O)C(C)C)C3c3ccccc3S(C)(=O)=O)cc2)o1 (stereo not shown) [Compound I-548]
stdout: 7.11

stdin: Output measured pIC50 for this item: COc1ccccc1C1c2c(C(C)C)n[nH]c2C(=O)N1c1ccc(-c2ccsc2)c(N(C)C)c1 (stereo not shown) [II-244]
stdout: 6.84

stdin: Output measured pIC50 for this item: Cc1nc(-c2ccc(N3C(=O)C(O)=C(C(=O)C(C)C)C3c3ccccc3OC(C)C)cc2)no1 (stereo not shown) [Compound I-312]
stdout: 7.27

stdin: Output measured pIC50 for this item: COc1ccc(N2C(=O)c3[nH]nc(C(C)(C)C)c3C2c2ccccc2OC)cc1 (stereo not shown) [II-098]
stdout: 6.12

stdin: Output measured pIC50 for this item: COCCOc1ncccc1C1c2c(n[nH]c2C(C)C)C(=O)N1c1ccc(-c2nc(C)no2)cc1 (stereo not shown) [II-281]
stdout: 6.18

stdin: Output measured pIC50 for this item: CC(C)c1n[nH]c2c1C(c1ccccc1C(=O)N(C)C)N(c1ccc(-c3ccsc3)cc1)C2=O (stereo not shown) [II-093]
stdout: 8.70

stdin: Output measured pIC50 for this item: COCCOc1ncccc1C1C(C(=O)C(C)(C)C)=C(O)C(=O)N1c1ccc(SC)cc1 (stereo not shown) [Compound I-150]
stdout: 6.38

stdin: Output measured pIC50 for this item: COc1ccc(C(=O)C2=C(O)C(=O)N(c3nc4cc(OC)ccc4s3)C2c2ccccc2OCCO)cc1 (stereo not shown) [Compound I-125]
stdout: 6.96

stdin: Output measured pIC50 for this item: COCc1ccccc1C1c2c(C(C)(C)C)n[nH]c2C(=O)N1c1ccc(-c2cc(C)no2)cc1 (stereo not shown) [II-068]
stdout: 6.29

stdin: Output measured pIC50 for this item: Cc1cc(-c2ccc(N3C(=O)C(O)=C(C(=O)C(C)C)C3c3ccccc3N3CCCC3=O)cc2)cs1 (stereo not shown) [Compound I-598]
stdout: 6.11

stdin: Output measured pIC50 for this item: Cc1ncccc1C1c2c(C(C)(C)C)n[nH]c2C(=O)N1c1ccc(-c2ccsc2)cc1 (stereo not shown) [II-123]
stdout: 6.37

stdin: Output measured pIC50 for this item: Cc1ccc(-c2ccc(N3C(=O)C(O)=C(C(=O)CC(C)C)C3c3ccccc3OC(F)F)cc2)o1 (stereo not shown) [Compound I-361]
stdout: 7.32

stdin: Output measured pIC50 for this item: CN(C)C(=O)COc1ccccc1C1c2c(C(C)(C)C)n[nH]c2C(=O)N1c1ccc(-c2ccsc2)cc1 (stereo not shown) [II-166]
stdout: 8.15

stdin: Output measured pIC50 for this item: CSc1ccccc1C1C(C(=O)C(C)(C)C)=C(O)C(=O)N1c1ccc(-c2ccon2)cc1 (stereo not shown) [Compound I-057]
stdout: 6.80
